Target: T1, biotinylated mouse recombinant IL-12Rβ2 (produced in-house) (mouse, UniProt P97378 24-637, random biotinylated)
T1 construct: Soluble recombinant protein used for panning, ELISA and BLI; also called mIL-12RB2; mIL12RB2
T1 sequence: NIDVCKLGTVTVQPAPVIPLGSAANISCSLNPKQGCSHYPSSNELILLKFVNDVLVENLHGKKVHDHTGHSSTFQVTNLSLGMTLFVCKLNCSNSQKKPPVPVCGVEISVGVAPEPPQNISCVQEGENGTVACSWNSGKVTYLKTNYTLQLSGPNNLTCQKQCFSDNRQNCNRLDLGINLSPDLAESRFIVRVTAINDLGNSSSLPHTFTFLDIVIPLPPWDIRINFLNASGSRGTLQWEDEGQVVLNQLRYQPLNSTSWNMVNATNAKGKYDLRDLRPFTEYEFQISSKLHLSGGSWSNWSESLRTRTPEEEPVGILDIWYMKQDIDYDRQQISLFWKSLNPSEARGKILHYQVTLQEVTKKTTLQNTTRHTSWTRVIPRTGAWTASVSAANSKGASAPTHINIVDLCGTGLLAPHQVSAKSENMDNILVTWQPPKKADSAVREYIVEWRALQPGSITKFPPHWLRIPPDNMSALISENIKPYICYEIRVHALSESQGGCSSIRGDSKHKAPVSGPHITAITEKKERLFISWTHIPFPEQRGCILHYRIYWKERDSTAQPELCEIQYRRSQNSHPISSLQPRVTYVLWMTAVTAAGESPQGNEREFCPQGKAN
Test: ELISA, periplasmic extract on biotinylated mouse IL-12Rβ2
Measure: binding result

anti-IL-12Rβ2 VHH clone 2CRH82 (clone ID 20372) (VHH, Tested as periplasmic extract; not shown: C-terminal HA tag) VHH: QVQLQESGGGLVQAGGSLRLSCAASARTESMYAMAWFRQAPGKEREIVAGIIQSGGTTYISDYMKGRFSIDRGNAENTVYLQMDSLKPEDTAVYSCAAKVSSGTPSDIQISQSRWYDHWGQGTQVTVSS
no binding
anti-IL-12Rβ2 VHH clone 3CRH5 (clone ID 20373) (VHH, Tested as periplasmic extract; also called 3CRHS; not shown: C-terminal HA tag) VHH: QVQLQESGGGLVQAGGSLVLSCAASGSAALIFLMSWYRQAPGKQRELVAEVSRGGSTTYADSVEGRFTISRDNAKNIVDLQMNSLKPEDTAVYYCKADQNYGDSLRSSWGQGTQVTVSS
no binding
